src = the Human Domainome abundance scans (Beltran et al. 2025)

B1: Intersectin-2, residues 1129 to 1183; numbered along this chain, Q9NZM3 (parent)
chain: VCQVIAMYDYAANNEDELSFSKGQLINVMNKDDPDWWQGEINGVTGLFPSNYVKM

Variants of: B1
MEASUREMENT_NOTES: abundance fitness (aPCA) (normalised: wild type 0, dead -1); higher = more abundant; growth selection in yeast, the domain comes from the species named
ASSAY_CONDITIONS: Homo sapiens
RECORDED_METRIC: abundance fitness

Look over these answered cases.
| MUTATION_STRING | RESULT |
| --- | --- |
| V44Y | -0.101 |
| N42V | -0.1 |
| V44F | -0.098 |
| S50N | -0.1 |
| M29S | -0.039 |

Now let's try a different one.
Can you look up the measured abundance fitness of N14V for me?
-0.099
